biological target: GPR43 (Mus musculus, UniProt Q8VCK6)
Sequence (Q8VCK6 whole entry): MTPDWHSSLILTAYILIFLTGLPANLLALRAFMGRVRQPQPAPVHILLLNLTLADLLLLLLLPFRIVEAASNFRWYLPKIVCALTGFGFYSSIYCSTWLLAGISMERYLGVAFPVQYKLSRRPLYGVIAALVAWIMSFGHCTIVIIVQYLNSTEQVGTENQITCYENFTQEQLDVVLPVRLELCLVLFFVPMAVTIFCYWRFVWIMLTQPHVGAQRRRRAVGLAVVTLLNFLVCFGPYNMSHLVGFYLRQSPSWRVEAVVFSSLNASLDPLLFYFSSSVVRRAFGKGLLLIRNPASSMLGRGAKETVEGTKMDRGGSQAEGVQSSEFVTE
measure-name: EC50 (µM)

>  <compound>
CC(=O)CC(=O)O [acetoacetate]

>  <unit-spec>
µM

>  <assay-value>
760

$$$$

The origin of these recorded values is paper PMC6876247.
